Data origin: patent US7592367B2

test system: human leukemia K562 (K562/S) cell line; experiment: MTT cytotoxicity assay, doxorubicin-sensitive K562; conditions: read-out: Cytotoxicity IC50 against K562/S; K562/S; Example 1 MTT assay; Table 4 columns marked ^a
parameter: pIC50
Kindly note that pIC50 refers to -log10 of the concentration in mol/L and answer with the value alone.

Using human leukemia K562 (K562/S) cell line as the test system, report measured pIC50 of CC(C)=CCCC1(C)C=Cc2c(O)c3c(c(CC=C(C)C)c2O1)OC12C(=CC4CC1C(C)(C)OC2(CC=C(C)C(=O)O)C4=O)C3=O (single isomer, unassigned; epimer 2) [Epimer 2, epigambogic acid] .
6.07
